Test system: UACC-257 melanoma
Test: NCI tumour cell line growth inhibition, 48 h
RECORDED METRIC: TGI (µM)
Give just the number in µM; leave the unit off.

compound="N#Cc1c2ccccc2c2n1-c1ccccc1OC(c1ccccc1)C2=O (centres undefined)" obs_value=17.6

Switching to the query record.
What value of TGI on UACC-257 melanoma does COc1ccccc1/C=C1\CCC(CNc2ccc(Cl)cc2)C1=O (centres undefined) have?
26.7

---

Tested on: UO-31 renal
Test: NCI tumour cell line growth inhibition, 48 h
List of GI50 values.

compound=O=C1c2ccccc2-c2c1c1ccc([N+](=O)[O-])cc1c(=O)n2CCNCCCNCCn1c2c(c3ccc([N+](=O)[O-])cc3c1=O)C(=O)c1ccccc1-2 recorded_metric=GI50 obs_value="0.541 µM"
compound=COc1ccc(Nc2ccnc(NCCNc3ccnc4cc(Cl)ccc34)n2)cc1 recorded_metric=GI50 obs_value="1.5 µM"
compound="CCCCCCCCCCCCCCCC(=O)OCC1OC(n2cnc3c(=S)nc(N)[nH]c32)C(OC(=O)CCCCCCCCCCCCCCC)C1OC(=O)CCCCCCCCCCCCCCC (stereo unspecified)" recorded_metric=GI50 obs_value="9.49 µM"
compound=Nc1ccc(-c2nc3ccccc3[nH]2)c(O)c1 recorded_metric=GI50 obs_value="43.8 µM"
compound="O=CN1N=C(c2ccc(Nc3ccnc4cc(Cl)ccc34)cc2)CC1c1ccccc1 (stereo unspecified)" recorded_metric=GI50 obs_value="3.81 µM"

Given CSc1ccc(-c2cc(-c3ccc(NC(=O)CCCN4CCCC4)cc3)nc(-c3ccc(NC(=O)CCCN4CCCC4)cc3)c2)cc1 , state its recorded GI50.
15.5 µM

---

Tested on: NCI-H226 lung
Assay: NCI tumour cell line growth inhibition, 48 h; in the data active = GI50 below about 0.43 µM; inactive = the rest
Can you answer with just one of these options? true = active, false = inactive

smiles_string=CC/C=C\C/C=C\C[C@H](O)C/C=C1/C(=O)C=C[C@H]1C/C=C\CCC(=O)OC system_tested="NCI-H226 lung" label=false
smiles_string=NC(N)=N/N=C/c1c(-c2cccs2)nc2sccn12 system_tested="NCI-H226 lung" label=false
smiles_string=CSc1ccc(-c2cc(-c3ccc(NC(=O)CCCN4CCCC4)cc3)nc(-c3ccc(NC(=O)CCCN4CCCC4)cc3)c2)cc1 system_tested="NCI-H226 lung" label=false
smiles_string=CCN(CC)CCOc1ccc(Nc2ncc3cc(-c4c(Cl)cccc4Cl)c(=O)n(CCOC)c3n2)cc1 system_tested="NCI-H226 lung" label=true

With those in mind, consider the next compound.
Called result for Cn1c(=O)c(Oc2cccc(F)c2)cc2cnc(NC3CCOCC3)nc21
false

---

TGI overview
Tested on: U251 CNS
Assay: NCI tumour cell line growth inhibition, 48 h

molecule="O=c1[nH]cnc2c1nnn2C1OC(CO)C(O)C1O (stereo not given)" recorded_metric=TGI obs_value="> 100 µM"
molecule=CC1=C(C)CC2(SC1)C(=O)c1ccccc1C2=O recorded_metric=TGI obs_value="> 100 µM"
molecule="C=CCC12CCC(=O)C=C1CCC1(C2)OCCO1 (stereo not given)" recorded_metric=TGI obs_value="> 100 µM"

// lookup TGI | system=U251 CNS | key= CCON=C1C(C)(C)C(C)(C)C(C)(C)C1(C)C
> 100 µM

Recall the recorded TGI for CCOC(=O)c1cc2c(n1Cc1cc(OC)cc(OC)c1)-c1oncc1CCC2 with U251 CNS and state it.
> 100 µM

Can you look up TGI on U251 CNS for COc1ccc(C[C@H](N)C(=O)N2C[C@H](CO)C[C@H](n3cnc4c(N(C)C)ncnc43)C2)cc1 ?
> 100 µM

For U251 CNS, provide TGI of Cc1cccc2nc3cccc(C(=O)NCCC[N+](C)(CCCNC(=O)c4cccc5nc6cccc(C)c6nc45)Cc4c([N+](=O)[O-])ncn4C)c3nc12 please.
> 1100 µM

What value of TGI on U251 CNS does CN(C)C(=S)NN=C(c1ccccn1)c1ccccn1 have?
> 59.4 µM

Please tell me: TGI of CC(C)[C@H]1NC(=O)[C@H]2N=C(O[C@@H]2C)[C@@H]2CCCN2C(=O)[C@H](Cc2ccccc2)NC(=O)[C@@H]2CSC(=N2)[C@@H](Cc2ccccc2)NC(=O)[C@@H]2CSC1=N2 , system U251 CNS?
> 100 µM

Request - read-out TGI | tested on U251 CNS | molecule COC(=O)c1ccccc1C#CCCCOS(C)(=O)=O
> 10 µM

---

Reported TGI values follow for various compounds
Tested on: CCRF-CEM leukemia
Test: NCI tumour cell line growth inhibition, 48 h
Express the result in µM but write the number alone.

compound="CC1CCC2(NC1)OC1CC3[C@@H]4CC=C5C=CCC[C@]5(C)C4CC[C@]3(C)C1C2C (some centres undefined)" obs_value=55.4

Next compound, please.
Entry NCCNCCCCCCNC(=O)c1cccc2cc3ccccc3nc12 has what TGI?
7.26

---

System: SK-MEL-5 melanoma
Experiment: NCI tumour cell line growth inhibition, 48 h
Form field: TGI (one value per entry).

Answered cases to consult:
compound="CCCCCCCCCCCCCCCC(=O)OCC1OC(n2cnc3c(=S)nc(N)[nH]c32)C(OC(=O)CCCCCCCCCCCCCCC)C1OC(=O)CCCCCCCCCCCCCCC (stereo not drawn)" obs_value="> 50 µM"
compound=N/N=C1/C(=N/O)CCc2nonc21 obs_value="> 100 µM"
compound=COCN1CCN=c2c1c1c3c(c4ccccc4n23)CCC1 obs_value="> 100 µM"
compound="N=S(=O)(c1ccccc1)c1ccccc1[N+](=O)[O-] (stereo not drawn)" obs_value="> 100 µM"
compound=O=C(NNc1cn[nH]c(=O)c1Cl)/C(=C/c1ccc2c(c1)OCO2)NC(=O)c1ccccc1 obs_value="> 100 µM"

For CSc1nc(NC2OCC(O)C(O)C2O)c(N)c(=O)n1C (stereo not drawn) , what is its reported TGI?
> 100 µM

Requested field: TGI. Item: Cc1cc(=O)c2cc(N=Cc3ccc([N+](=O)[O-])o3)ccc2o1
> 100 µM

Quick one: TGI of CNS(=O)(=O)NN(C)S(=O)(=O)c1ccc(Cl)cc1 ?
> 100 µM

Fill in the blank: the reported TGI of C1#Cc2ccccc2OCCOc2ccccc2C#Cc2ccccc2OCCOc2ccccc21 is ____.
58.7 µM

I'd like to know its TGI. The compound in question is COc1cc2c(cc1OCCCOC1=C=C=C(c3ccc4c(c3)c3cc(-c5ccc(OCCCOc6cc7c(cc6OC)C(=O)N6CCC[C@H]6C=N7)cc5)ccc3n4S(=O)(=O)c3ccc(C)cc3)C=C1)N=C[C@@H]1CCCN1C2=O
11.1 µM

---

Tested on: HCT-15 colon
Assay: NCI tumour cell line growth inhibition, 48 h
RECORDED METRIC: TGI

compound=Cc1cc(=O)c2cc(N=Cc3ccc([N+](=O)[O-])o3)ccc2o1 obs_value="> 100 µM"
compound=Cc1cc2ccccc2n1CC(=O)N1CCCC1 obs_value="> 100 µM"

Which measured TGI value corresponds to COc1ccc(-c2nc(-c3cc4ccccc4oc3=O)cs2)cc1 ?
> 100 µM

Sample CCOC(=O)c1cc2c(n1Cc1cc(OC)cc(OC)c1)-c1oncc1CCC2 — what was its TGI?
> 100 µM

// TGI lookup, key: S=c1nc2[nH]c3ccc(Br)cc3c2n[nH]1
> 100 µM

Can you look up the measured TGI of Oc1ccc2occ3c2c1CCC3 for me?
> 100 µM

What does the data say about its TGI? Entry: O=C(c1ccccc1)c1c(C(F)(F)F)n([O-])c2cc(Cl)c(Cl)cc2[n+]1=O
2.76 µM

---

System: UO-31 renal
Assay: NCI tumour cell line growth inhibition, 48 h
# Lookup of reported TGI keyed by entry

Example results:
molecule=Cn1c(-c2ccc[se]2)ccc1-c1ccc(CO)[se]1 recorded_metric=TGI obs_value="> 100 µM"
molecule=COc1cc(/C=C2\N=C(c3ccccc3)N(/N=C3\C(=O)Nc4ccccc43)C2=O)cc(OC)c1OC recorded_metric=TGI obs_value="> 100 µM"
molecule=O=C1c2ccccc2-c2c1c1ccc([N+](=O)[O-])cc1c(=O)n2CCNCCCNCCn1c2c(c3ccc([N+](=O)[O-])cc3c1=O)C(=O)c1ccccc1-2 recorded_metric=TGI obs_value="6.84 µM"

State the recorded TGI for this entry: O=S1(=O)N(Cc2ccccc2)[C@@H](Cc2ccccc2)C2O[C@H]2[C@H](Cc2ccccc2)N1Cc1ccccc1 (some centres not stated)
> 7.5 µM

Reported TGI, molecule CC(C)(C)OC(=O)NC(Cc1ccc(O)cn1)C(N)=O (configuration not stated) : ____
> 100 µM

---

Tested on: K-562 leukemia
Assay: NCI tumour cell line growth inhibition, 48 h
The entries below are paired with their reported TGI.

compound="O=C(CC1(O)C(=O)Nc2ccc(Br)cc21)c1ccc(Cl)cc1 (centres undefined)" system_tested="K-562 leukemia" recorded_metric=TGI obs_value="> 100 µM"
compound=O=C(CN1CCCCC1)c1ccc2c(c1)Sc1ccccc1O2 system_tested="K-562 leukemia" recorded_metric=TGI obs_value="> 100 µM"
compound=Cn1c(=O)c(Oc2cccc(F)c2)cc2cnc(NC3CCOCC3)nc21 system_tested="K-562 leukemia" recorded_metric=TGI obs_value="> 25 µM"

Query the reported TGI for K-562 leukemia; item: Cc1[nH]c(C(=O)Nc2ccc(C(=O)N3CCNCC3)cc2OC(C)C)c(Cl)c1Cl
4.71 µM

The measured values listed here are drawn from PubChem BioAssay (NCI).
